What follows is a collection of IC50 values obtained with human LTA4 hydrolase (Homo sapiens, UniProt P09960).
Sequence (P09960 whole entry): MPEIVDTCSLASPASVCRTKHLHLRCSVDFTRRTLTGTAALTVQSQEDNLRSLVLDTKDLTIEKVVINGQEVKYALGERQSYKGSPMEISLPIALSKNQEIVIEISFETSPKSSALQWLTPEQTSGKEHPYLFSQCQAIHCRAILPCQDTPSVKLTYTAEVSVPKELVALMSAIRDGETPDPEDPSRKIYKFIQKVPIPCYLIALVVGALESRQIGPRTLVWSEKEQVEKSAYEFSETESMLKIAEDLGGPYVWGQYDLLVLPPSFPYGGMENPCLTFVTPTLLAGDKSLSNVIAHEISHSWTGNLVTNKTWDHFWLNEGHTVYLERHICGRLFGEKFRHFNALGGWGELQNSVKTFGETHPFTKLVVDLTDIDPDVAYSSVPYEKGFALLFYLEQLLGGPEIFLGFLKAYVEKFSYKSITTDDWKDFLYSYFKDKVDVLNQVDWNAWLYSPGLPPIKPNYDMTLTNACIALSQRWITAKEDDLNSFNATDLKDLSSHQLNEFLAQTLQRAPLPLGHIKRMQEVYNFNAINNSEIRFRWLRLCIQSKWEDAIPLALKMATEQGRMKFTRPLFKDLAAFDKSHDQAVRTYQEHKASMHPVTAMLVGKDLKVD
READOUT TYPE: IC50

{"columns": ["COMPOUND", "READOUT TYPE", "RESULT"],
 "data": [
  ["CC(=O)N[C@H]1C[C@H]2CC[C@@H](C1)N2CC1Cc2ccc(Oc3ccc(-c4ccn[nH]4)cc3)cc2O1 (stereo partly drawn)", "IC50", "0.17 nM"],
  ["O=C1COCCN1C1CCN(Cc2ccc3cc(Oc4ccc(-c5ccn[nH]5)cn4)ccc3n2)CC1", "IC50", "0.8 nM"],
  ["O[C@H]1CCN(Cc2ccc3cc(Oc4ccc(-c5ccn[nH]5)cn4)ccc3n2)C1", "IC50", "0.82 nM"]
]}
